Experiment: Thermodynamic aqueous solubility of compound in PBS buffer at pH 7.4 at 25 degreeC measured after 24 hrs by UPLC analysis
Type: physicochemical
Conditions: read-out: Therm_solubility
The reader will find reported solubility thermodynamic at 24 h values listed item by item below.
Entry rule: numbers only, all in µM.

Recorded solubility thermodynamic at 24 h, per entry:
// query solubility thermodynamic at 24 h value for entry Cc1[nH]c(C(=O)Nc2ccc(C(=O)NC3CCCNC3)cc2OC(C)C)c(Cl)c1Cl.Cl (stereo not drawn)
4.6

// query solubility thermodynamic at 24 h value for entry Cc1[nH]c(C(=O)Nc2ccccc2OCc2cccc(C(=O)NCCN)c2)c(Cl)c1Cl.Cl
18

// query solubility thermodynamic at 24 h value for entry Cc1[nH]c(C(=O)Nc2ccc(C(=O)NCCN)cc2OC(C)C)c(Cl)c1Cl.Cl
16

// query solubility thermodynamic at 24 h value for entry Cc1[nH]c(C(=O)Nc2ccccc2OCc2cccc(C(=O)O)c2)c(Cl)c1Cl
2.1

// query solubility thermodynamic at 24 h value for entry Cc1[nH]c(C(=O)Nc2ccc(C(N)=O)cc2OCc2ccc(C(=O)NCCN)cc2)c(Cl)c1Cl.Cl.Cl
9.2

Others:
// query solubility thermodynamic at 24 h value for entry Cc1[nH]c(C(=O)Nc2ccccc2OCc2cccc(C(=O)NC3CCNC3)c2)c(Cl)c1Cl.Cl (stereo not drawn)
15

// query solubility thermodynamic at 24 h value for entry Cc1[nH]c(C(=O)Nc2ccccc2OCc2cccc(C(=O)NC3CCCNC3)c2)c(Cl)c1Cl.Cl (stereo not drawn)
10

// query solubility thermodynamic at 24 h value for entry Cc1[nH]c(C(=O)Nc2ccc(C(=O)NCC3CCNCC3)cc2OC(C)C)c(Cl)c1Cl.Cl
15

----------
Experiment: Selectivity index, ratio of IC50 for HEK293 cells to IC50 for human MCF7 cells
Format: toxicity
Details: HEK293 cells versus MCF7 cells, read-out: Ratio IC50
readout kind: selectivity ratio
I'd appreciate a reply containing only the number, no unit.

// query selectivity ratio value for entry Cc1[nH]c(C(=O)Nc2ccccc2OCc2cccc(C(=O)NC3CCCNC3)c2)c(Cl)c1Cl.Cl (stereo not drawn)
14

// query selectivity ratio value for entry Cc1[nH]c(C(=O)Nc2ccccc2OCc2cccc(C(=O)N3CCCC(N)C3)c2)c(Cl)c1Cl (stereo not drawn)
1.3

Kindly review the next molecule as well.
// query selectivity ratio value for entry Cc1[nH]c(C(=O)Nc2ccccc2OCc2cccc(C(=O)NCCN)c2)c(Cl)c1Cl.Cl
3

----------
Target: DNA topoisomerase 2-alpha (Homo sapiens)
Sequence (P11388 whole entry): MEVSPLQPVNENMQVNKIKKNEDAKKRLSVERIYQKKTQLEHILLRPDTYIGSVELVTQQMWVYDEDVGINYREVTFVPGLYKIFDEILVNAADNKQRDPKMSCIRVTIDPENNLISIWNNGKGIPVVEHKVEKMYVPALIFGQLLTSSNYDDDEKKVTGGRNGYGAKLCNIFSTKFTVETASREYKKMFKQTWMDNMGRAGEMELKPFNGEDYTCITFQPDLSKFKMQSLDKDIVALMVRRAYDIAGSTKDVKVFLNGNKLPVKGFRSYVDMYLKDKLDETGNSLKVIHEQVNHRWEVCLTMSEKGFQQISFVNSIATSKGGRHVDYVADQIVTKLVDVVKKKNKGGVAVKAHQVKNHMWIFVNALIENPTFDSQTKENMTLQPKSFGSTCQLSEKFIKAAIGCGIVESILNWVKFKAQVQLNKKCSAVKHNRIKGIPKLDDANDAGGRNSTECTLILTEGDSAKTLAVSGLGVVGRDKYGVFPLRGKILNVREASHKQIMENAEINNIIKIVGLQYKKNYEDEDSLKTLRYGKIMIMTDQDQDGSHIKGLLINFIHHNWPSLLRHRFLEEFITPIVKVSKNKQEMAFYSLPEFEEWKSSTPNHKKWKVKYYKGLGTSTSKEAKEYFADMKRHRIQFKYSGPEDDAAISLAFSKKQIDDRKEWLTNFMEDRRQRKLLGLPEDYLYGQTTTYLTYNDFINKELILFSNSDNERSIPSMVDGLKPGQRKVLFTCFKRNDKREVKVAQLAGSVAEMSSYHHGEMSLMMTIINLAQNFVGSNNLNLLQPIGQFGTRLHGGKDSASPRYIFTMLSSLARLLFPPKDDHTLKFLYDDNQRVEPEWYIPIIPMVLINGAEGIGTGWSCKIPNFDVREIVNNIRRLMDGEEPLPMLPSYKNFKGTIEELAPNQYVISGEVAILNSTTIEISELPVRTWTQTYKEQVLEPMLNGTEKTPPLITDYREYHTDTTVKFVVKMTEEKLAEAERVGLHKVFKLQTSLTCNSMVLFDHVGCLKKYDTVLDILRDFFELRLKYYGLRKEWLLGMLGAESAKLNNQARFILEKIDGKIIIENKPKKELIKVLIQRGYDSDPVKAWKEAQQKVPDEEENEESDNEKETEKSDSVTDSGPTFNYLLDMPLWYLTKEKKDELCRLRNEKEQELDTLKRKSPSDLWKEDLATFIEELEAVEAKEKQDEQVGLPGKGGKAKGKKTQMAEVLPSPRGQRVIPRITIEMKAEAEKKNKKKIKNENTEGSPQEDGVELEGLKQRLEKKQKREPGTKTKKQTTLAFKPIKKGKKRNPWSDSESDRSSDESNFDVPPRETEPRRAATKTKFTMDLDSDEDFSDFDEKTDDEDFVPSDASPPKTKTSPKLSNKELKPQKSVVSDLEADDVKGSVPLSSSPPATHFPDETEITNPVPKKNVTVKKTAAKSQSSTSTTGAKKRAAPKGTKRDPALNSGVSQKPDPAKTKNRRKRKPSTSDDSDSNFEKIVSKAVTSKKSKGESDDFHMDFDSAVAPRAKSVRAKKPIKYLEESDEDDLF
Test: Inhibition of human DNA topoisomerase 2 alpha assessed as relaxation of supercoiled plasmid pNO1 DNA incubated for 30 mins by fluorescence based analysis
The reader will find reported IC50 values listed item by item below.

// query IC50 value for entry Cc1[nH]c(C(=O)Nc2ccccc2OCc2cccc(C(=O)NC3CCNC3)c2)c(Cl)c1Cl.Cl (stereo not given)
6.3 µM

Others:
// query IC50 value for entry Cc1[nH]c(C(=O)Nc2cc(C(N)=O)ccc2OC(C)C)c(Cl)c1Cl
> 100 µM

// query IC50 value for entry Cc1[nH]c(C(=O)Nc2ccc(C(=O)N3CCCC(N)C3)cc2OC(C)C)c(Cl)c1Cl (stereo not given)
32 µM

// query IC50 value for entry Cc1[nH]c(C(=O)Nc2ccc(C(N)=O)cc2OCc2ccc(C(=O)NCCN)cc2)c(Cl)c1Cl.Cl.Cl
0.67 µM

// query IC50 value for entry COc1ccc(NC(=O)c2cc(Br)c(Br)[nH]2)c(C(=O)NCc2ccc(C(=O)O)cc2)c1
39 µM
